- Test system: CP325
- experiment: qHTS profiling for inhibitors of Plasmodium falciparum proliferation (AID 504749); note: nearly all actives have a fitted effect of over 60% in size
- experimental_conditions: P. falciparum in erythrocytes, SYBR Green DNA, 72 h; series mostly up to 28.7 µM
Results filed as inconclusive are left out. Calls of active or inactive are those of the source. Calls come from the whole dose curve; as a rule, active = well fitted inhibition curve with a large enough effect; inconclusive = small, poorly fitted or top-dose-only effect; inactive = flat fitted curve, though single readings scatter.
Possible outcomes: true (1) for active, false (0) for inactive

# compound, label_value
measured = [
    ("C#CC1(O)CCC2C3CCC4=CC(=O)CCC4(C)C3CCC21C (configuration not stated)", "false (0)"),
    ("CN(C)[C@@H]1C(=O)C(C(N)=O)=C(O)[C@@]2(O)C(=O)C3=C(O)c4c(O)cccc4[C@@](C)(O)[C@H]3[C@H](O)[C@@H]12", "false (0)"),
    ("CCCCCCCCCC(CC)c1ccc(S(=O)(=O)O)cc1 (configuration not stated)", "false (0)"),
    ("O=C(O)C(Cl)Cl", "false (0)"),
    ("CN[C@@H]1C[C@@H](c2ccc(Cl)c(Cl)c2)c2ccccc21", "false (0)"),
    ("O=[N+]([O-])c1ccc([As](=O)(O)O)cc1", "true (1)"),
    ("C=CCN1CC[C@]23CCCCC2[C@H]1Cc1ccc(O)cc13 (some centres not stated)", "false (0)"),
    ("CC(=O)OCC1=C(C(=O)O)N2C(=O)[C@@H](N)[C@@H]2SC1", "false (0)"),
    ("COC(=O)c1cncn1C(C)c1ccccc1 (configuration not stated)", "false (0)"),
    ("Cc1ccc(Cl)c(O)c1", "false (0)"),
    ("Cc1cc(O)ccc1Cl", "false (0)"),
    ("C1CCC(NC2CCCCC2)CC1", "false (0)"),
]
